system: GST-Ap-NF-kB RHD (Exaiptasia pallida (Aiptasia), UniProt A0A913YAJ5 2-422)
Sequence: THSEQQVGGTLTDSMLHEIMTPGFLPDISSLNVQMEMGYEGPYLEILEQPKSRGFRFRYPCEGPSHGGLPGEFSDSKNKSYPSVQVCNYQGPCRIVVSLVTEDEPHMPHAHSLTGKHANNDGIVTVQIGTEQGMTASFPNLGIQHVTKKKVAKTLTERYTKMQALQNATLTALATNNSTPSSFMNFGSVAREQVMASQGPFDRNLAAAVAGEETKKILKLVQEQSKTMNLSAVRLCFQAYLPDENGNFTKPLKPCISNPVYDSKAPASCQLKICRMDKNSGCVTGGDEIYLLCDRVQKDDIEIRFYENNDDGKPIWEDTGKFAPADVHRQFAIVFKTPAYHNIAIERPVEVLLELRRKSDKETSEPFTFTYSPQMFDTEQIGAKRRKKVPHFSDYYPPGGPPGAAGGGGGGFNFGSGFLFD
assay_notes: protein-binding microarray (PBM); PBM: ~300 nM protein, 6 mM HEPES pH 7.8, 80 mM KCl, 0.5 mM EDTA, 0.5 mM EGTA, 6% glycerol, 35 ng/ul poly-dIdC, 1% milk, 1 h, room temperature; high values mean tight binding
measurement_parameters: dsDNA, one strand shown
Entries and their measured binding signal follow.
quantity_name: binding signal (z-score)

input_sequence	numeric_value
CCGATTAACATCAGGGGGGAGTATGATGTTAATCGGGTCTTGATTCGCTTGACGCTGCTG	6.07
CCGATTAACATCAGGAGTTCCCCTGATGTTAATCGGGTCTTGATTCGCTTGACGCTGCTG	8.41
CCGATTAACATCAGGGGAGGGAATGATGTTAATCGGGTCTTGATTCGCTTGACGCTGCTG	3.95
CCGATTAACATCAGGAACGTCCCTGATGTTAATCGGGTCTTGATTCGCTTGACGCTGCTG	3.25
CCGATTAACATCAGGGGACCACCTGATGTTAATCGGGTCTTGATTCGCTTGACGCTGCTG	4.71
CCGATTAACATCAGGGGGCTTTATGATGTTAATCGGGTCTTGATTCGCTTGACGCTGCTG	5.16
CCGATTAACATCACATTTCCCCATGATGTTAATCGGGTCTTGATTCGCTTGACGCTGCTG	4.9

* * *

system: GST-Ap-NF-kB RHD (Exaiptasia pallida (Aiptasia), UniProt A0A913YAJ5 2-422)
Sequence: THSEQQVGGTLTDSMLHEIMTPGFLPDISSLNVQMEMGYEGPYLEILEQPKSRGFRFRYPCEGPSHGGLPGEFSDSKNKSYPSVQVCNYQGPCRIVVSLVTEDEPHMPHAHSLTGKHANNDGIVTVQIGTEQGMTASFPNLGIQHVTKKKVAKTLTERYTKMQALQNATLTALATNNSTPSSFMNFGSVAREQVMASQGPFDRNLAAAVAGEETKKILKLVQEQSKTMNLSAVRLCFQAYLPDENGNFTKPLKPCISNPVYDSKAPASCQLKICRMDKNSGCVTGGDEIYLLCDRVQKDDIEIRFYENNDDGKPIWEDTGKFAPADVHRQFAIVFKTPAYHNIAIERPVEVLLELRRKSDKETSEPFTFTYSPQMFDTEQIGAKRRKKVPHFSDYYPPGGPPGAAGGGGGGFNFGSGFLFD
assay_notes: protein-binding microarray (PBM); PBM: ~300 nM protein, 6 mM HEPES pH 7.8, 80 mM KCl, 0.5 mM EDTA, 0.5 mM EGTA, 6% glycerol, 35 ng/ul poly-dIdC, 1% milk, 1 h, room temperature; high values mean tight binding
measurement_parameters: dsDNA, one strand shown
Entries and their measured binding signal follow.
quantity_name: binding signal (z-score)

input_sequence	unit_descriptor	numeric_value
CCGATTAACATCACAAAACCCCCTGATGTTAATCGGGTCTTGATTCGCTTGACGCTGCTG	z-score	9.76
CCGATTAACATCAAATATCCCCTTGATGTTAATCGGGTCTTGATTCGCTTGACGCTGCTG	z-score	8.05
CCGATTAACATCACGGAGTTCCCTGATGTTAATCGGGTCTTGATTCGCTTGACGCTGCTG	z-score	2.6
CCGATTAACATCACGGGGAATTATGATGTTAATCGGGTCTTGATTCGCTTGACGCTGCTG	z-score	7.23
CCGATTAACATCAAGGGGGGTGGTGATGTTAATCGGGTCTTGATTCGCTTGACGCTGCTG	z-score	3.51
CCGATTAACATCAGAAGTCCCCCTGATGTTAATCGGGTCTTGATTCGCTTGACGCTGCTG	z-score	7.95
CCGATTAACATCAGGAACCTCCCTGATGTTAATCGGGTCTTGATTCGCTTGACGCTGCTG	z-score	1.92
CCGATTAACATCAAGCCCCCCCTTGATGTTAATCGGGTCTTGATTCGCTTGACGCTGCTG	z-score	4.63
CCGATTAACATCAAAGTCTCCCCTGATGTTAATCGGGTCTTGATTCGCTTGACGCTGCTG	z-score	5.38
CCGATTAACATCAGGGGGACCCCTGATGTTAATCGGGTCTTGATTCGCTTGACGCTGCTG	z-score	8.92
CCGATTAACATCAGGCTTTTCCCTGATGTTAATCGGGTCTTGATTCGCTTGACGCTGCTG	z-score	2.62
CCGATTAACATCAGGGAAAATGATGATGTTAATCGGGTCTTGATTCGCTTGACGCTGCTG	z-score	2.8
CCGATTAACATCACTTTACCCCCTGATGTTAATCGGGTCTTGATTCGCTTGACGCTGCTG	z-score	4.02
CCGATTAACATCAAGGGTGGGAATGATGTTAATCGGGTCTTGATTCGCTTGACGCTGCTG	z-score	1.69
CCGATTAACATCAGGAAAGTCCCTGATGTTAATCGGGTCTTGATTCGCTTGACGCTGCTG	z-score	7.69
CCGATTAACATCACAATCCCCCCTGATGTTAATCGGGTCTTGATTCGCTTGACGCTGCTG	z-score	8.13
CCGATTAACATCAGAAATCCCCATGATGTTAATCGGGTCTTGATTCGCTTGACGCTGCTG	z-score	8.63
CCGATTAACATCAGGGGATTGTATGATGTTAATCGGGTCTTGATTCGCTTGACGCTGCTG	z-score	6.91

* * *

system: GST-Aq-NF-kB (Amphimedon queenslandica, UniProt A9Y5G7 2-389)
Sequence: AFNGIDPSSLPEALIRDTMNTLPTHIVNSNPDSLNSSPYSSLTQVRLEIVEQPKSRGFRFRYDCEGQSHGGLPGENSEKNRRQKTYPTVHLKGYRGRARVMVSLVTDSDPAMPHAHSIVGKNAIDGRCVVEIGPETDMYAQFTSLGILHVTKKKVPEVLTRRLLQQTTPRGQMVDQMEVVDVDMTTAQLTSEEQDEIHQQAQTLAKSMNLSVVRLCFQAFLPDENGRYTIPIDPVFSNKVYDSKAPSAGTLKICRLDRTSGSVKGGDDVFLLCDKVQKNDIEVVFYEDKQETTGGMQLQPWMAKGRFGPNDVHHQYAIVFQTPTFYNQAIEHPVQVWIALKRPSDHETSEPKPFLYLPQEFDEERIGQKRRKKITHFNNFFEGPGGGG
assay_notes: protein-binding microarray (PBM); PBM: ~300 nM protein, 6 mM HEPES pH 7.8, 80 mM KCl, 0.5 mM EDTA, 0.5 mM EGTA, 6% glycerol, 35 ng/ul poly-dIdC, 1% milk, 1 h, room temperature; high values mean tight binding
measurement_parameters: dsDNA, one strand shown

input_sequence	binding signal [z-score]
CCGATTAACATCAAAAATCCCCTTGATGTTAATCGGGTCTTGATTCGCTTGACGCTGCTG	8.57
CCGATTAACATCAGGGGTGCCCATGATGTTAATCGGGTCTTGATTCGCTTGACGCTGCTG	1.5
CCGATTAACATCACAAAATTTCCTGATGTTAATCGGGTCTTGATTCGCTTGACGCTGCTG	1.72
CCGATTAACATCAGGAGTGTCCCTGATGTTAATCGGGTCTTGATTCGCTTGACGCTGCTG	4.83
CCGATTAACATCAAACTTTTCCCTGATGTTAATCGGGTCTTGATTCGCTTGACGCTGCTG	4.63

* * *

system: GST-Aq-NF-kB (Amphimedon queenslandica, UniProt A9Y5G7 2-389)
Sequence: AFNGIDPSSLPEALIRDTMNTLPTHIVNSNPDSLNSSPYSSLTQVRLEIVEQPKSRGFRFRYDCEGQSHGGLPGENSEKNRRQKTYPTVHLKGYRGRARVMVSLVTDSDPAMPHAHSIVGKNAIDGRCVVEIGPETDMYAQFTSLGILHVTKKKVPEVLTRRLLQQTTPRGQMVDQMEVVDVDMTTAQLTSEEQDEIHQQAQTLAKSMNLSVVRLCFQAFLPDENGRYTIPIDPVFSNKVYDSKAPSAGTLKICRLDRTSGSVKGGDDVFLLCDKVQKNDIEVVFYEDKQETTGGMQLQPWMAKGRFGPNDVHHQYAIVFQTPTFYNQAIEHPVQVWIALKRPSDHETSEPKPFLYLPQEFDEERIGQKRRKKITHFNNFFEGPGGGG
assay_notes: protein-binding microarray (PBM); PBM: ~300 nM protein, 6 mM HEPES pH 7.8, 80 mM KCl, 0.5 mM EDTA, 0.5 mM EGTA, 6% glycerol, 35 ng/ul poly-dIdC, 1% milk, 1 h, room temperature; Ap Aiptasia and Nv Nematostella (sea anemones) / Co Capsaspora / Aq Amphimedon (sponge) / Dm Drosophila / Hu human; RHD is the Rel homology domain; high values mean tight binding
measurement_parameters: dsDNA, one strand shown
Class key for binding signal values: A = under 3 z-score, B = from 3 z-score up to 5 z-score, C = 5 z-score and over

input_sequence	category
CCGATTAACATCAGGGGGTGTAATGATGTTAATCGGGTCTTGATTCGCTTGACGCTGCTG	B
CCGATTAACATCAGGATTTTACCTGATGTTAATCGGGTCTTGATTCGCTTGACGCTGCTG	B
CCGATTAACATCAGGTAACCCCATGATGTTAATCGGGTCTTGATTCGCTTGACGCTGCTG	A
CCGATTAACATCAACTAATTCCCTGATGTTAATCGGGTCTTGATTCGCTTGACGCTGCTG	B
CCGATTAACATCAAGGAGTTTCCTGATGTTAATCGGGTCTTGATTCGCTTGACGCTGCTG	A
CCGATTAACATCAAGCAATCCCCTGATGTTAATCGGGTCTTGATTCGCTTGACGCTGCTG	B
CCGATTAACATCAGAATTTCCCATGATGTTAATCGGGTCTTGATTCGCTTGACGCTGCTG	C
CCGATTAACATCACAAACCCCCCTGATGTTAATCGGGTCTTGATTCGCTTGACGCTGCTG	C
CCGATTAACATCAAGGAAATCCCTGATGTTAATCGGGTCTTGATTCGCTTGACGCTGCTG	C
CCGATTAACATCATGTTAGGGAATGATGTTAATCGGGTCTTGATTCGCTTGACGCTGCTG	B
CCGATTAACATCAGGATATCCCCTGATGTTAATCGGGTCTTGATTCGCTTGACGCTGCTG	C
CCGATTAACATCAAAAATCCCGATGATGTTAATCGGGTCTTGATTCGCTTGACGCTGCTG	B
CCGATTAACATCAACGAAACCCCTGATGTTAATCGGGTCTTGATTCGCTTGACGCTGCTG	A
